meta.source: ChEMBL document CHEMBL4342413

- Test system: Plasmodium falciparum
- assay.comment: Antimalarial activity against Plasmodium falciparum NF54 strain male gametes in human RBC assessed as induction of impairment of exflagellation of male gametes by dual gamete formation assay
- Format: functional, organism-based
- measurement.conditions: Plasmodium falciparum, NF54
Items are presented alongside their recorded pEC50.
Reminder that pEC50 means the negative base-10 logarithm of the concentration expressed in mol/L.

molecule: O=S(=O)(NCC1(O)CCOc2cc(F)ccc21)c1ccc(Br)s1 (racemic)
system.name: Plasmodium falciparum
measured.value: 6.44

[ask] Looking for the measured pEC50 of O=S(=O)(NCC1(O)CCOc2ccc(F)cc21)c1ccc(Br)s1 (racemic) , can you help?
[reply] 6.71

* * *

- Tested on: Plasmodium falciparum
- assay.comment: Antimalarial activity against Plasmodium falciparum NF54 strain male gametes in human RBC assessed as induction of impairment of exflagellation of male gametes by dual gamete formation assay
- Type: functional, organism-based
- measurement.conditions: Plasmodium falciparum, NF54
assay.readout: EC50

molecule: COc1ccc(S(=O)(=O)NCC2(O)CCOc3ccccc32)cc1 (racemic)
EC50: > 25000 nM

[ask] Looking for the measured EC50 of COc1cccc2c1OCCC2(O)CNS(=O)(=O)c1ccc(Br)s1 (racemic) , can you help?
[reply] > 25000 nM

[ask] Try this molecule too: N#Cc1ccc(S(=O)(=O)NCC2(O)CCOc3ccccc32)cc1 (racemic)
[reply] > 25000 nM

[ask] Try this molecule too: O=S(=O)(NCC1(O)CCOc2ccccc21)c1ccccc1Br (racemic)
[reply] 344 to 367 nM

[ask] Try this molecule too: O=S(=O)(NCC1(O)CCOc2ccccc21)c1sccc1Br (racemic)
[reply] 212 nM

[ask] Try this molecule too: COc1cccc2c1OCCC2(O)CNS(=O)(=O)c1cccc(Br)c1 (racemic)
[reply] > 25000 nM

* * *

Items are presented alongside their recorded EC50.
- Test system: Plasmodium falciparum
- assay.comment: Antimalarial activity against Plasmodium falciparum NF54 strain male gametes in human RBC assessed as induction of impairment of exflagellation of male gametes by dual gamete formation assay
- Assay type: functional, organism-based
- measurement.conditions: Plasmodium falciparum, NF54

[ask] Query EC50 on Plasmodium falciparum for O=S(=O)(NCC1(O)CC(c2ccccc2)Oc2ccccc21)c1cccc(Br)c1 (racemic)
[reply] > 25 µM

[ask] Try this compound too: O=S(=O)(NCC1(O)CCOc2ccccc21)c1ccc(Br)cc1 (racemic)
[reply] > 5 µM

[ask] Try this compound too: O=S(=O)(NCC1(O)CCOc2ccccc21)c1ccc(Cl)cc1 (racemic)
[reply] > 1 µM

* * *

Items are presented alongside their recorded EC50.
- Test system: Plasmodium falciparum
- assay.comment: Antimalarial activity against Plasmodium falciparum NF54 strain male gametes in human RBC assessed as induction of impairment of exflagellation of male gametes by dual gamete formation assay
- Format: functional, organism-based
- measurement.conditions: Plasmodium falciparum, NF54

Consider the worked cases shown below.
compound: O=S(=O)(NCC1CCOc2ccccc21)c1ccc(Br)s1 (racemic)
system.name: Plasmodium falciparum
measured.value: > 10000 nM

compound: O=S(=O)(NCC1(O)CCOc2ccc(F)cc21)c1cccc(Br)c1 (racemic)
system.name: Plasmodium falciparum
measured.value: 83 nM

compound: O=S(=O)(NCC1CCOc2ccccc21)c1cccc(Br)c1 (racemic)
system.name: Plasmodium falciparum
measured.value: > 10000 nM

compound: CC(=O)c1cccc(S(=O)(=O)NCC2(O)CCOc3ccccc32)c1 (racemic)
system.name: Plasmodium falciparum
measured.value: > 20000 nM

compound: O=S(=O)(NCC1(F)CCOc2ccccc21)c1cccc(Br)c1 (racemic)
system.name: Plasmodium falciparum
measured.value: 945 nM

[ask] Looking for the measured EC50 of O=S(=O)(NCC1(O)CCOc2ccc(Br)cc21)c1ccc(Br)s1 (racemic) , can you help?
[reply] > 1000 nM

[ask] Try this compound too: O=S(=O)(NCC1(F)CCOc2ccccc21)c1ccc(Br)s1 (racemic)
[reply] > 1000 nM

[ask] Try this compound too: O=S(=O)(NCC1(O)CCOc2ccccc21)c1ccccc1Cl (racemic)
[reply] > 1000 nM

[ask] Try this compound too: COC1(CNS(=O)(=O)c2ccc(Br)s2)CCOc2ccccc21 (racemic)
[reply] 354 nM

[ask] Try this compound too: O=S(=O)(NCC1(O)CCOc2ccccc21)c1ccccc1 (racemic)
[reply] 470 nM

[ask] Try this compound too: `O=S(=O)(NCC1=CCOc2ccccc21)c1ccc(Br)s1`
[reply] > 25000 nM

* * *

- Test system: Plasmodium falciparum
- assay.comment: Antimalarial activity against Plasmodium falciparum NF54 strain male gametes in human RBC assessed as induction of impairment of exflagellation of male gametes by dual gamete formation assay
- Format: functional, organism-based
- measurement.conditions: Plasmodium falciparum, NF54
Items are presented alongside their recorded EC50.
# number only, unit nM dropped from output

compound: O=S(=O)(NCC1(O)CCOc2ccccc21)c1cccc(Cl)c1 (racemic)
system.name: Plasmodium falciparum
unit.of.measure: nM
measured.value: 118

We next turn to a different compound, shown below.
[ask] Looking for the measured EC50 of O=S(=O)(NCC1(O)CCOc2ccc(Br)cc21)c1cccc(Br)c1 (racemic) , can you help?
[reply] 785

* * *

Items are presented alongside their recorded EC50.
- Tested on: Plasmodium falciparum
- assay.comment: Antimalarial activity against Plasmodium falciparum NF54 strain male gametes in human RBC assessed as induction of impairment of exflagellation of male gametes by dual gamete formation assay
- Type: functional, organism-based
- measurement.conditions: Plasmodium falciparum, NF54

Consider the worked cases shown below.
compound: O=S(=O)(NCC1(O)CCOc2ccc(O)cc21)c1cccc(Br)c1 (racemic)
EC50: > 10 µM
--
compound: C=CCOc1ccc2c(c1)C(O)(CNS(=O)(=O)c1cccc(Br)c1)CCO2 (racemic)
EC50: > 25 µM

[ask] Query EC50 on Plasmodium falciparum for O=S(=O)(NCC1(O)CC(c2ccccc2)Oc2ccccc21)c1ccc(Br)s1 (racemic)
[reply] > 25 µM
